B1: library; numbered along this chain (parent)
chain: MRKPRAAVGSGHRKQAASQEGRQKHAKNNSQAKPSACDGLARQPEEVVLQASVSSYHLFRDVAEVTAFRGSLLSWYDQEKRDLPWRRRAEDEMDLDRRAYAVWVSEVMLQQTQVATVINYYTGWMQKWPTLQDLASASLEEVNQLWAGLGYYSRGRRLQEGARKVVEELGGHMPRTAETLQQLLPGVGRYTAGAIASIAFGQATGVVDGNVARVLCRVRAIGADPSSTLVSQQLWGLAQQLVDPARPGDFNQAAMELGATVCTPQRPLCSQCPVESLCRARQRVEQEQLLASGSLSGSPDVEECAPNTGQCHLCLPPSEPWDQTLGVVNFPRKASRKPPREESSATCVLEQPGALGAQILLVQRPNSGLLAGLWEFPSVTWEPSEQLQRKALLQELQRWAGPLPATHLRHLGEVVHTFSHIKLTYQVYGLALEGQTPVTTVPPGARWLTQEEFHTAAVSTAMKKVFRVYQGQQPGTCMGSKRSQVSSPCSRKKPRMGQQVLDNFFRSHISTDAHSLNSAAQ

# Variants of: B1
# procedure text: 8OG:A repair function score (normalized; synonymous = 0, nonsense = -1) (normalized log-likelihood score); higher = more repair activity (WT-like);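 further: cells sorted at 72 h after reporter transfection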
# condition notes: with 8OG:A DNA repair reporter (GFP) in HEK-293 MUTYH KO cells
Measured 8OG:A repair function score values are reported for all entries that follow.
The answer should be a number; do not append a unit.

Example results:
[
  {
    "variant spec": "E46T",
    "measurement name": "8OG:A repair function score",
    "recorded result": 0.134
  },
  {
    "variant spec": "H407V",
    "measurement name": "8OG:A repair function score",
    "recorded result": 0.0608
  },
  {
    "variant spec": "Y190P",
    "measurement name": "8OG:A repair function score",
    "recorded result": -0.905
  },
  {
    "variant spec": "M108S",
    "measurement name": "8OG:A repair function score",
    "recorded result": -1.28
  }
]

Which 8OG:A repair function score value is on record for V485P ?
-0.0106

Please do the same for S483V as well.
0.0104

Please do the same for C311H as well.
-0.471
